Test system: SF-539 CNS
test details: NCI tumour cell line growth inhibition, 48 h
TGI by entry:
measured property: TGI (µM)

[[record]]
molecule = "Cc1ccc2c(=O)cc(-c3cccc(Cl)c3)[nH]c2n1"
relation_symbol = "="
quantitative_result = 0.0443

[[record]]
molecule = "NC(=O)c1ncn2c1NCC1OC2C(O)C1O (stereo not given)"
relation_symbol = ">"
quantitative_result = 100

[[record]]
molecule = "C=C(C)[C@@H]1C/C=C(\\COC(=O)[C@H](OC(C)=O)C(NC(=O)c2ccccc2)c2ccccc2)CC[C@H]2O[C@]2(C)CC/C=C(\\C)CC1 (stereo not given in full)"
relation_symbol = "="
quantitative_result = 27.1

[[record]]
molecule = "O=C1c2ccccc2C(=O)N1CCn1nc(-c2ccccc2)cc(-c2ccccc2)c1=O"
relation_symbol = ">"
quantitative_result = 100

[[record]]
molecule = "Cc1cc(C)c2c(=O)cc(-c3cccc(Cl)c3)[nH]c2n1"
relation_symbol = "="
quantitative_result = 0.464


====

System: NCI/ADR-RES ovarian
test details: NCI tumour cell line growth inhibition, 48 h
measured property: GI50

[[record]]
compound = "CN(C)c1ccc(O)c2c1CC1CC3C(N(C)C)C(=O)C(C(N)=O)=C(O)C3(O)C(=O)C1=C2O (stereo not given)"
target_under_test = "NCI/ADR-RES ovarian"
result = "17.3 µM"

[[record]]
compound = "C=CCOC1=CC(=O)c2ccccc2C1=O"
target_under_test = "NCI/ADR-RES ovarian"
result = "2.68 µM"

[[record]]
compound = "NS(=O)(=O)N(c1cc(C(F)(F)F)cc(C(F)(F)F)c1)C1CCN(Cc2ccc(C(F)(F)F)cc2)CC1"
target_under_test = "NCI/ADR-RES ovarian"
result = "6.82 µM"

[[record]]
compound = "CN(CCO)C1CCN(c2ccc(Nc3ncc4c5ccnc(F)c5n(C5CCCC5)c4n3)nc2)CC1"
target_under_test = "NCI/ADR-RES ovarian"
result = "15.3 µM"

[[record]]
compound = "O=C(Nc1cccc(-n2cc(-c3ccncc3)c(-c3ccc(Cl)c(O)c3)n2)c1)Nc1cccc(C(F)(F)F)c1"
target_under_test = "NCI/ADR-RES ovarian"
result = "2.14 µM"

[[record]]
compound = "CCCCCCCCCCCCCCCCNC(=O)OC(C)C"
target_under_test = "NCI/ADR-RES ovarian"
result = "3.34 µM"

[[record]]
compound = "O=C1c2[nH]cc(CN3CCN(CCO)CC3)c2C(=O)c2c1c(O)c1ccccc1c2O"
target_under_test = "NCI/ADR-RES ovarian"
result = "9.64 µM"

[[record]]
compound = "COc1cc(-c2cncn2-c2ccc(-c3nc4ccc(F)cc4s3)cc2)ccc1F"
target_under_test = "NCI/ADR-RES ovarian"
result = "30.6 µM"

[[record]]
compound = "O=[N+]([O-])c1cc([N+](=O)[O-])c(N2CCCC2)cc1NN=C(c1ccc(O)cc1)c1ccc(O)cc1"
target_under_test = "NCI/ADR-RES ovarian"
result = "13.6 µM"

[[record]]
compound = "Oc1ccc(/C=C/c2ccc(O)cc2)cc1"
target_under_test = "NCI/ADR-RES ovarian"
result = "3.25 µM"


====

System: U251 CNS
test details: NCI tumour cell line growth inhibition, 48 h
TGI by entry:
measured property: TGI

[[record]]
compound = "CCC(C)NC1=C(NC(C)=O)C(=O)c2ccccc2C1=O (stereo unspecified)"
target_under_test = "U251 CNS"
measured_property = "TGI"
result = "> 75 µM"

[[record]]
compound = "COc1cc(-c2cc(/C=C3\\C(=O)Nc4ccc(Cl)cc43)[nH]n2)cc(OC)c1OC"
target_under_test = "U251 CNS"
measured_property = "TGI"
result = "> 100 µM"

[[record]]
compound = "COC(=O)[C@@H]1CCCN1C(=O)[C@@H]1CCCN1C(=O)[C@H](Cc1ccccc1)NC(=S)Nc1cc(C(F)(F)F)cc(C(F)(F)F)c1"
target_under_test = "U251 CNS"
measured_property = "TGI"
result = "13.2 µM"

[[record]]
compound = "CC12OC3(O)C4C5CC(C6C5C3C61)C42 (stereo unspecified)"
target_under_test = "U251 CNS"
measured_property = "TGI"
result = "> 100 µM"

[[record]]
compound = "CCCCCOC(=O)C(=O)Nc1n[nH]nc1C(N)=O"
target_under_test = "U251 CNS"
measured_property = "TGI"
result = "> 100 µM"

[[record]]
compound = "COC(=O)Cc1ccc(Oc2nc3ccccc3nc2-c2cccs2)cc1"
target_under_test = "U251 CNS"
measured_property = "TGI"
result = "> 100 µM"

[[record]]
compound = "COC(=O)c1nc(-c2ccc(Cl)c(Cl)c2)nc2ccc(Cl)cc12"
target_under_test = "U251 CNS"
measured_property = "TGI"
result = "> 100 µM"

[[record]]
compound = "Cc1ccc(NS(=O)(=O)c2ccc(-c3cnc(C4CC4)o3)cc2)cc1C"
target_under_test = "U251 CNS"
measured_property = "TGI"
result = "> 33.9 µM"

[[record]]
compound = "c1ccc(C(c2ccccc2)c2ccncc2)cc1"
target_under_test = "U251 CNS"
measured_property = "TGI"
result = "> 100 µM"

[[record]]
compound = "CC(SC(=S)Nc1cccc(F)c1)C(=O)O (stereo unspecified)"
target_under_test = "U251 CNS"
measured_property = "TGI"
result = "84.9 µM"

[[record]]
compound = "C[C@]12CCc3nonc3C1CC[C@@H]1C2CC[C@]2(C)C(=O)/C(=N\\O)CC12 (stereo partly specified)"
target_under_test = "U251 CNS"
measured_property = "TGI"
result = "> 100 µM"

